# Target under test: PACAP-R3 (Homo sapiens)
# Sequence (P41587 24-438): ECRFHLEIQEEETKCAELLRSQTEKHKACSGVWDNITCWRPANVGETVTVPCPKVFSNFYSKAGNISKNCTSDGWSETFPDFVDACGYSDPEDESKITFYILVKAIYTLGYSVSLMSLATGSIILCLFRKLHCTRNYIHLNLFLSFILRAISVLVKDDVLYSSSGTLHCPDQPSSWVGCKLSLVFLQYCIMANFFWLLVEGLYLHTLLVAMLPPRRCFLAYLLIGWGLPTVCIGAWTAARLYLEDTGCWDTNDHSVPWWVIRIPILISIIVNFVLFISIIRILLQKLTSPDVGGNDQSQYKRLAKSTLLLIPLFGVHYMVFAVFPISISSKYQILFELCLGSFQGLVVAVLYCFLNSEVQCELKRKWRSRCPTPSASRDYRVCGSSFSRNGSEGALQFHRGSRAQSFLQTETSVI
# Assay summary: Cyclic AMP SPA on CHO cells expressing PACAP R3
# Assay type: cell-based
# Parameters: expressed in transfected cells; host or cells: CHO cells (Geneticin selection)
# Particulars: ratio of EC50 at R2 versus EC50 at R3
No end group written: not given here.
Readout: R3 Selectivity
Respond using a number only.

# Substance, R3 Selectivity
data = [
    ("HSDAVFTDQYTRLRKQMAAKKYLNSIKNKRY [Peptide R3P71]", 660),
    ("HSDAVFTDNYTRLRKQMAFKKYLNSIKNKR [Peptide R3P100]", 30),
    ("HSDAVFTDNYTRLRKQMAWKKYLNSIKNKR [Peptide R3P114]", 10),
    ("HSDAVFTDNYTRLRKQMAAKKYLNSIKKKR [Peptide R3P53]", 2500),
    ("HSDAVFTDNYTRLRKQMAAKKYLNSIENKR [Peptide R3P119]", 30),
    ("HSDAVFTDNYTRLRKQMAGKKYLNSIKNKR [Peptide R3P101]", 400),
]

Lab note: substance HSDAVFTDNYTRLRKQMAAKKYLNSIKNLR [Peptide R3P142] tested on PACAP-R3 (Homo sapiens); recorded R3 Selectivity was 30

Lab note: substance HSDGIFTDSYSRYRKQMAVKKYLAAKL-NH2 [PAC26] tested on PACAP-R3 (Homo sapiens); recorded R3 Selectivity was 1

Lab note: substance HSDAVFTDNYTRLRKQMAVKKYLNSIKK-NH2 [Peptide R3P8] tested on PACAP-R3 (Homo sapiens); recorded R3 Selectivity was 1.5

Lab note: substance HSDAVFTDNYTRLRKQMAAKKYLNSIRNRI [rR3P189] tested on PACAP-R3 (Homo sapiens); recorded R3 Selectivity was 30
